system: EphB2 (Homo sapiens, UniProt P29323)
Construct: expressed in transfected cells; host or cells: yeast
method.notes: Yeast growth assay, specificity profiling
Assay type: cell-based
Design: key: “−” indicates no growth restoration i.e. no activity against the particular kinase; “+”, “++”, and “+++” indicate activity detected by restoration of growth, classified into three categories of potency; “+”, “++”, and “+++” indicate activity detected by restoration of growth, classified into three categories of potency; “+”, “++”, and “+++” indicate activity detected by restoration of growth, classified into three categories of potency
test.settings: 7 concentrations between 0.2 and 100 μM
measure.name: EphB2 growth restoration

Answered cases to consult:
Cc1nccn2c(Nc3ccc(F)c(F)c3)c(-c3ccccc3)nc12; ++
Clc1cccc(Nc2c(-c3ccccc3)nc3cnccn23)c1; −
Cc1nccn2c(Nc3cccc(F)c3)c(-c3ccccc3)nc12; +++
Fc1ccc(Nc2c(-c3ccccc3)nc3cnccn23)cc1F; +
Cc1cccc(Nc2c(-c3ccccc3)nc3cnccn23)c1; −

Consider now this further compound.
*Q* Recorded EphB2 growth restoration for COc1cccc(-c2nc3cnccn3c2Nc2cccc(Cl)c2)c1 , please?
*A* −

====

system: RET (Homo sapiens, UniProt P07949)
Construct: expressed in transfected cells; host or cells: yeast
Sequence (P07949 29-1114): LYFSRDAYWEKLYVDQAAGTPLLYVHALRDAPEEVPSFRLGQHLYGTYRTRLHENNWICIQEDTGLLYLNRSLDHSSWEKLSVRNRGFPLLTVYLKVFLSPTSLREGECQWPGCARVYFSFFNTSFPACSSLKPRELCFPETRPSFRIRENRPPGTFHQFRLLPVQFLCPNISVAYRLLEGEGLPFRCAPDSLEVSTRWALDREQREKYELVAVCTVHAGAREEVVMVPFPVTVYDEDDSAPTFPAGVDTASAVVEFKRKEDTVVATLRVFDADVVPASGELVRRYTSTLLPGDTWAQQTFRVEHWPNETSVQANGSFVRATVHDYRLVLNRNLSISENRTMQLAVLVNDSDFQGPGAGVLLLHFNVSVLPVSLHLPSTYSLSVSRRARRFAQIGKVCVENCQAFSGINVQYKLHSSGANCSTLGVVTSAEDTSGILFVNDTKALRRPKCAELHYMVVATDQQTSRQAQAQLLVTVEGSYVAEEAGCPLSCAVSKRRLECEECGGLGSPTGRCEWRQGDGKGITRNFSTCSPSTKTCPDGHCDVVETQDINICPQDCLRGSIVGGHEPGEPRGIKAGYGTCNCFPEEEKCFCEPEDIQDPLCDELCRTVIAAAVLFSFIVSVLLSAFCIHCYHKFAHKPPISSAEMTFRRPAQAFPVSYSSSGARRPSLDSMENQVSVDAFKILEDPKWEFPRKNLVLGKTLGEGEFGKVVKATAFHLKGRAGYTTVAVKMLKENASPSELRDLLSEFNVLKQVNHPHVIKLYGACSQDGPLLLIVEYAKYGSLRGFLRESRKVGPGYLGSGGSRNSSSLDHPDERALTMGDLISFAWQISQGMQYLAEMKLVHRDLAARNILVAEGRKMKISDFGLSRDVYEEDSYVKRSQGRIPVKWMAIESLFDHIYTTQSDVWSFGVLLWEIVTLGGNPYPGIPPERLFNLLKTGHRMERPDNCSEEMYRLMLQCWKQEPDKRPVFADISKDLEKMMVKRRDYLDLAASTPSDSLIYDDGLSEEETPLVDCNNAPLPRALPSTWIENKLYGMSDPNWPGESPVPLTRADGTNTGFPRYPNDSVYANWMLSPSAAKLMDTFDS
method.notes: Yeast growth assay, specificity profiling
Format: cell-based
Parameters: key: “−” indicates no growth restoration i.e. no activity against the particular kinase; “+”, “++”, and “+++” indicate activity detected by restoration of growth, classified into three categories of potency; “+”, “++”, and “+++” indicate activity detected by restoration of growth, classified into three categories of potency; “+”, “++”, and “+++” indicate activity detected by restoration of growth, classified into three categories of potency
test.settings: 7 concentrations between 0.2 and 100 μM
measure.name: RET growth restoration

Answered cases to consult:
c1ccc(Nc2c(-c3ccccc3)nc3cnccn23)cc1 [compound 23]; +
Brc1cccc(Nc2c(-c3ccccc3)nc3cnccn23)c1 [compound 14]; −
Fc1ccc(Nc2c(-c3ccccc3)nc3cnccn23)cc1F [compound 30]; −
Cc1nccn2c(Nc3ccc(F)c(F)c3)c(-c3ccccc3)nc12 [compound 45]; −
Cc1nccn2c(Nc3ccccc3)c(-c3ccccc3)nc12 [compound 39]; +
CC(C)c1nc2cnccn2c1Nc1cccc(Cl)c1 [compound 12]; −
c1ccc(Nc2c(-c3ccc(N4CCOCC4)cc3)nc3cnccn23)cc1 [compound 38]; −
Cc1nccn2c(Nc3cccc(F)c3)c(-c3ccccc3)nc12 [compound 44]; −

*Q* Recorded RET growth restoration for Fc1cccc(Nc2c(-c3ccccc3)nc3cnccn23)c1 [compound 26] , please?
*A* −

*Q* Recorded RET growth restoration for COc1cccc(-c2nc3c(C)nccn3c2Nc2cccc(Cl)c2)c1 [compound 48] , please?
*A* −

====

system: EphB2 (Homo sapiens, UniProt P29323)
Construct: expressed in transfected cells; host or cells: yeast
method.notes: Yeast growth assay, specificity profiling
Format: cell-based
Set-up: key: “−” indicates no growth restoration i.e. no activity against the particular kinase; “+”, “++”, and “+++” indicate activity detected by restoration of growth, classified into three categories of potency; “+”, “++”, and “+++” indicate activity detected by restoration of growth, classified into three categories of potency; “+”, “++”, and “+++” indicate activity detected by restoration of growth, classified into three categories of potency
test.settings: 7 concentrations between 0.2 and 100 μM
measure.name: EphB2 growth restoration

CC(=O)Nc1ccc(-c2nc3c(C)nccn3c2Nc2cccc(Cl)c2)cc1; +++
Fc1cccc(Nc2c(-c3ccccc3)nc3cnccn23)c1; +
c1ccc(Nc2c(-c3ccc(N4CCOCC4)cc3)nc3cnccn23)cc1; ++
c1ccc(Nc2c(-c3ccccc3)nc3cnccn23)cc1; ++
Clc1ccc(Nc2c(-c3ccccc3)nc3cnccn23)cc1; −

*Q* Recorded EphB2 growth restoration for Brc1cccc(Nc2c(-c3ccccc3)nc3cnccn23)c1 , please?
*A* −

*Q* Recorded EphB2 growth restoration for COc1cccc(-c2nc3c(C)nccn3c2Nc2cccc(C)c2)c1 , please?
*A* +++

====

system: EphB2 (Homo sapiens, UniProt P29323)
Construct: expressed in transfected cells; host or cells: yeast
Sequence (P29323 19-1055): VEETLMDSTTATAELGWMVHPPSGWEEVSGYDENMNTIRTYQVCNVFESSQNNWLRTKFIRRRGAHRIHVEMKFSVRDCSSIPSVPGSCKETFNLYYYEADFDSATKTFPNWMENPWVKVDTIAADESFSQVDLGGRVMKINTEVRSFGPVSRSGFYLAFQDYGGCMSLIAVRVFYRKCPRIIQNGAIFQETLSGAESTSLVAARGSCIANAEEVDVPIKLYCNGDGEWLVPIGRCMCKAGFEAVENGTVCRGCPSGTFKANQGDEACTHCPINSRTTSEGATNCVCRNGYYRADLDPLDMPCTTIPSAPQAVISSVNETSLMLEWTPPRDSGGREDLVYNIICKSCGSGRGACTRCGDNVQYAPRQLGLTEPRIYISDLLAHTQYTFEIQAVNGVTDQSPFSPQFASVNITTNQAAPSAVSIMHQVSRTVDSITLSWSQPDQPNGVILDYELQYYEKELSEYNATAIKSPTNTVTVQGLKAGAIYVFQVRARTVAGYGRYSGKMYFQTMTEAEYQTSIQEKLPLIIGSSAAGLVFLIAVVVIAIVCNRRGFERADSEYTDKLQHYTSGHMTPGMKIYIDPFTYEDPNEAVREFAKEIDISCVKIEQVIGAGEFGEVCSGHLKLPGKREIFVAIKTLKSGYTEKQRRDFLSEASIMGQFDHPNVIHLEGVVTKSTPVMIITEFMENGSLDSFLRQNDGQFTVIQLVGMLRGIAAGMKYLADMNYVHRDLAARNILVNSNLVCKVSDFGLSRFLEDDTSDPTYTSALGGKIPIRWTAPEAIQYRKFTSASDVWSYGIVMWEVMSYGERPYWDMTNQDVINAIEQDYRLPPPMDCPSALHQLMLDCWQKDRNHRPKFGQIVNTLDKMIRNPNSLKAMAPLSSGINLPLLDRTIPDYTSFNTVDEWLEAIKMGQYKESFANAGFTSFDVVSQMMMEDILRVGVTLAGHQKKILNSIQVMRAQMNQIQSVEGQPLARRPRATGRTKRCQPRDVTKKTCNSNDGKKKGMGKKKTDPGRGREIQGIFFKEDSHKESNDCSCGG
method.notes: Yeast growth assay, specificity profiling
Type: cell-based
Parameters: key: “−” indicates no growth restoration i.e. no activity against the particular kinase; “+”, “++”, and “+++” indicate activity detected by restoration of growth, classified into three categories of potency; “+”, “++”, and “+++” indicate activity detected by restoration of growth, classified into three categories of potency; “+”, “++”, and “+++” indicate activity detected by restoration of growth, classified into three categories of potency
test.settings: 7 concentrations between 0.2 and 100 μM
measure.name: EphB2 growth restoration

COc1cccc(-c2nc3c(C)nccn3c2Nc2cccc(Cl)c2)c1 [compound 48]; +++
Nc1ccc(-c2nc3cnccn3c2Nc2cccc(Cl)c2)cc1 [compound 10]; ++
CC(=O)Nc1ccc(-c2nc3cnccn3c2Nc2cccc(Cl)c2)cc1 [compound 8]; ++
Cc1nccn2c(Nc3cccc(Cl)c3)c(-c3ccccc3)nc12 [compound 3]; ++
Cc1nccn2c(Nc3ccccc3)c(-c3ccccc3)nc12 [compound 39]; +++

*Q* Recorded EphB2 growth restoration for CC(C)c1nc2cnccn2c1Nc1cccc(Cl)c1 [compound 12] , please?
*A* +

*Q* Recorded EphB2 growth restoration for CNc1nccn2c(Nc3cccc(Cl)c3)c(-c3ccccc3)nc12 [compound 20] , please?
*A* −

*Q* Recorded EphB2 growth restoration for Cc1cccc(Nc2c(-c3ccccc3)nc3c(C)nccn23)c1 [compound 43] , please?
*A* ++
